- measured-on: CYP3A4 (Homo sapiens)
- Construct: using human liver microsomes (pool from various individuals); from tissue; host or cells: human liver microsomes (pool from various individuals)
- Sequence (P08684 whole entry): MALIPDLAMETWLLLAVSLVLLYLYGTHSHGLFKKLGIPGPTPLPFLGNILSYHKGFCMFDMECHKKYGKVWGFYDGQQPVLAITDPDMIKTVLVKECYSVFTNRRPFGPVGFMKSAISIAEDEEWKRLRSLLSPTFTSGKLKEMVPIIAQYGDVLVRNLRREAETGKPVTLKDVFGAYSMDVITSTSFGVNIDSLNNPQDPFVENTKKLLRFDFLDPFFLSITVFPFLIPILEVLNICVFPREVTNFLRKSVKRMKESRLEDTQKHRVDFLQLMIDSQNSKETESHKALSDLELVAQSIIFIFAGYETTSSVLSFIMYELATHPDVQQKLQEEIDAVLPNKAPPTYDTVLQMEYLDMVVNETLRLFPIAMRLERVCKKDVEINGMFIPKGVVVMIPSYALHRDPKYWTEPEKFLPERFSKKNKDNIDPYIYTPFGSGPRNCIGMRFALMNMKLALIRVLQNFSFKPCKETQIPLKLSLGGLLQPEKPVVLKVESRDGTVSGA
- test-details: CYP inhibition assay with human liver microsomes
- Type: in vitro ADME
- run-parameters: without preincubation, read-out: CYP 3A4 Coincubation
pIC50: −log10 of the molar value.
property-name: pIC50

Record excerpt, results attached:
compound	result
CS(=O)(=O)Cc1cc(F)cc2c(C(c3ccc(C(F)(F)F)cc3F)C3CC3C#N)c[nH]c12 (single isomer, unassigned) [Example 271-1-1]	< 4.40
Cc1ccc(C(CCC#N)c2c[nH]c3c(CS(C)(=O)=O)cccc23)cc1 (stereo not shown) [Example 166]	< 4.70
CS(=O)(=O)Cc1cccc2c(C(c3ccc(Cl)cc3)C3CC3C#N)c[nH]c12 (stereo not shown) [Example 276]	< 4.70

Requested read-out: pIC50. Entry: C[S+]([O-])Cc1cccc2c(C3(C4CC4)CCc4cc(F)ccc43)c[nH]c12 (mixture of isomers) [Example 120]
< 4.70

###

- measured-on: androgen receptor (AR) (Homo sapiens, UniProt P10275)
- Construct: of the androgen receptor (AR, amino acids 667-919); expressed in transfected cells; host or cells: CHO K1
- Sequence (P10275 668-920): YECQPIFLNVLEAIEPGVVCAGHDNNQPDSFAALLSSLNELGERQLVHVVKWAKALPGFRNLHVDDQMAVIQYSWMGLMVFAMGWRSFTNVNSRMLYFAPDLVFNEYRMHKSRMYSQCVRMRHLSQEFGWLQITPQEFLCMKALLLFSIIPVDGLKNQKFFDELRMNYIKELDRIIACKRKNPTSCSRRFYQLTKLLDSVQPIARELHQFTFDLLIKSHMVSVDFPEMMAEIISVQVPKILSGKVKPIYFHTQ
- test-details: Cellular in vitro assay, GAL4-AR chimera luciferase reporter in CHO K1 cells (selectivity)
- Assay type: cell-based
- run-parameters: antagonism vs dihydrotestosterone; CHO K1 GAL4-AR LBD luciferase reporter
property-name: pIC50
Just so you know, pIC50 here is -log10 of the concentration in molar units; reply with that number alone.

Check out these entries, answers already filled in.
compound	measured-on	result
CS(=O)(=O)Cc1cccc2c(C(c3ccc(Cl)cc3Cl)C3CC3(F)F)c[nH]c12 (single isomer, unassigned) [Example 325-1-1]	androgen receptor (AR) (Homo sapiens, UniProt P10275)	6.28
CS(=O)(=O)Cc1cccc2c(C(c3ccc(Cl)cc3Cl)C3CC3(F)F)c[nH]c12 (single isomer, unassigned) [Example 325-2]	androgen receptor (AR) (Homo sapiens, UniProt P10275)	5.28
CS(=O)(=O)Cc1cccc2c(C(CCC#N)c3ccc(C(F)(F)F)cc3F)c[nH]c12 (stereo not shown)	androgen receptor (AR) (Homo sapiens, UniProt P10275)	5.29
CS(=O)(=O)Cc1cc(F)cc2c(C(c3ccc(Cl)cc3)C3CC3C#N)c[nH]c12 (single isomer, unassigned)	androgen receptor (AR) (Homo sapiens, UniProt P10275)	5.41
CS(=O)(=O)Cc1cccc2c(C(c3ccc(F)cc3)c3ccc(C(F)(F)F)cc3)c[nH]c12 (stereo not shown)	androgen receptor (AR) (Homo sapiens, UniProt P10275)	5.49
CS(=O)(=O)Cc1cccc2c(C3(C4CC4)CCOc4cc(F)cc(F)c43)c[nH]c12 (stereo not shown)	androgen receptor (AR) (Homo sapiens, UniProt P10275)	5.56

Which measured pIC50 value corresponds to CC(c1ccc(Cl)cc1)(c1c[nH]c2c(CS(C)(=O)=O)cccc12)C1CC1C#N (stereo not shown) ?
5.27

###

- measured-on: CYP3A4 (Homo sapiens)
- Construct: using human liver microsomes (pool from various individuals); from tissue; host or cells: human liver microsomes (pool from various individuals)
- test-details: CYP inhibition assay with human liver microsomes
- Assay type: in vitro ADME
- run-parameters: 30 min preincubation with test compound before substrate, read-out: CYP 3A4 Preincubation, 30 min.
property-name: pIC50
The meaning of pIC50 here: minus log10 of the concentration in molar units.

molecule	measured-on	pIC50
CS(=O)(=O)Cc1cccc2c(C3(C4CC4)CCc4cc(F)ccc43)c[nH]c12 (stereo not shown)	CYP3A4 (Homo sapiens)	4.89
CS(=O)(=O)Cc1cccc2c(C(c3ccc(Cl)cc3)C3CC3(F)F)c[nH]c12 (single isomer, unassigned) [Example 261-1]	CYP3A4 (Homo sapiens)	4.72
CC(CCC#N)(c1ccc(Cl)cc1)c1c[nH]c2c(CS(C)(=O)=O)cccc12 (stereo not shown)	CYP3A4 (Homo sapiens)	5.11
CS(=O)(=O)Cc1cccc2c(C(CCC#N)c3ccc(Cl)cc3F)c[nH]c12 (single isomer, unassigned)	CYP3A4 (Homo sapiens)	4.88

Any idea what its pIC50 is? The molecule is Cc1ccc(C(CCC#N)c2c[nH]c3c(CS(C)(=O)=O)cccc23)cc1 (stereo not shown)
4.75

pIC50 lookup needed for CS(=O)(=O)Cc1cccc2c(C(c3ccc(F)cc3F)C3CC3)c[nH]c12 (stereo not shown) , thanks.
4.71

Reported pIC50, molecule CS(=O)(=O)Cc1cc(F)cc2c(C(c3ccc(C(F)(F)F)cc3F)C3CC3C#N)c[nH]c12 (single isomer, unassigned) : ____
4.59

###

Listed here: items and their measured IC50.
- measured-on: progesterone receptor (PR) (Homo sapiens)
- Construct: of the progesterone receptor (PR, amino acids 680-933)
- Sequence (P06401 680-933): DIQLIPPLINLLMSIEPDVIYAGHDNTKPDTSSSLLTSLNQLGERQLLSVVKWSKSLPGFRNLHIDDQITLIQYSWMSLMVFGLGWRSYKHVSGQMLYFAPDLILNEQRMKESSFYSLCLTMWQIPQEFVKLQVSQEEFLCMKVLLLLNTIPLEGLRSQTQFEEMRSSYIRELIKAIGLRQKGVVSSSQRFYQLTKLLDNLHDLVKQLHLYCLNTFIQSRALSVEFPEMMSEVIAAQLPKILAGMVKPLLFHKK
- test-details: Cellular in vitro assay, GAL4-PR chimera luciferase reporter in CHO K1 cells (selectivity)
- run-parameters: antagonism vs progesterone; CHO K1 GAL4-PR LBD luciferase reporter
Kindly answer with a numeric value in µM, unit omitted.

compound	measured-on	IC50, µM
CCC(CCC#N)(c1ccc(Cl)cc1)c1c[nH]c2c(CS(C)(=O)=O)cccc12 (single isomer, unassigned) [Enantiomer 172-1]	progesterone receptor (PR) (Homo sapiens)	4.31
CS(=O)(=O)Cc1cccc2c(C(c3ccc(Cl)cc3)C3CC3(F)F)c[nH]c12 (single isomer, unassigned) [Example 261-1]	progesterone receptor (PR) (Homo sapiens)	12.3
CC(CCC#N)(c1ccc(Cl)cc1)c1c[nH]c2c(CS(C)(=O)=O)cccc12 (stereo not drawn) [Example 171]	progesterone receptor (PR) (Homo sapiens)	2.23

What does the data say about its IC50? Entry: CS(=O)(=O)Cc1cc(F)cc2c(C(c3ccc(Cl)cc3)C3CC3C#N)c[nH]c12 (single isomer, unassigned) [Example 277-1-1]
10

// IC50 lookup, key: C[S+]([O-])Cc1cccc2c(C(c3ccc(Cl)cc3)c3ccc(Cl)cc3)c[nH]c12 (racemic) [Example 296]
4.81

Which IC50 value belongs to CCC(CCO)(c1ccc(Cl)cc1)c1c[nH]c2c(CSC)cccc12 (stereo not drawn) [Example 140] ?
10

// IC50 lookup, key: CS(=O)(=O)Cc1cc(F)cc2c(C(CCC#N)c3ccc(Cl)cc3Cl)c[nH]c12 (stereo not drawn) [Example 63]
4.81

Recorded IC50 for CCC(CCO)(c1ccc(Cl)cc1)c1c[nH]c2c(CS(C)(=O)=O)cccc12 (stereo not drawn) [Example 147] , please?
1.42

Which measured IC50 value corresponds to CS(=O)(=O)Cc1cc(F)cc2c(C(c3ccc(F)cc3Cl)C3CC3C#N)c[nH]c12 (single isomer, unassigned) [Example 266-1] ?
3

Endpoint output: IC50 of CC(c1ccc(Cl)cc1)(c1c[nH]c2c(CS(C)(=O)=O)cccc12)C1CC1C#N (stereo not drawn) [Example 106] . Value?
11.7

###

- measured-on: human mineralocorticoid receptor (MR) (Homo sapiens, UniProt P08235)
- Sequence (P08235 734-984 limits assumed): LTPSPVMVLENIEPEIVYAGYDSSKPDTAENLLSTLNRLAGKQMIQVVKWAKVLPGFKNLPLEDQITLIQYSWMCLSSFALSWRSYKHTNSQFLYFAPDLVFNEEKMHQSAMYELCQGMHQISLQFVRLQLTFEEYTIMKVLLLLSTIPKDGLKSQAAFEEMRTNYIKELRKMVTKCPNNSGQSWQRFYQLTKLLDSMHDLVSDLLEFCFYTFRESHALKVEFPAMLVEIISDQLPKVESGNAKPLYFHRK
- test-details: Cellular in vitro assay, GAL4-MR chimera luciferase reporter in CHO K1 cells (inhibitory MR activity)
- run-parameters: antagonism vs aldosterone; CHO K1 GAL4-MR LBD luciferase reporter
property-name: pIC50
// scale note: pIC50 = -log10(conc_M); give the bare number

molecule	pIC50
CS(=O)(=O)Cc1cccc2c(C(c3ccc(C(F)(F)F)cc3)C3CC3(F)F)c[nH]c12 (mixture of isomers)	6.40
CSCc1cc(F)cc2c(C(C)(c3ccc(Cl)cc3)C3CC3C#N)c[nH]c12 (stereo not shown)	7.00
CS(=O)(=O)Cc1cccc2c(C(CCC#N)c3ccc4c(c3)OC(F)(F)O4)c[nH]c12 (stereo not shown)	6.96

Given the entry CCC(CCC#N)(c1ccc(Cl)cc1)c1c[nH]c2c(C[S+](C)[O-])cccc12 (mixture of isomers) , report its measured pIC50.
7.54

###

// values below are reported Partition ratio r
- measured-on: CYP3A4 (Homo sapiens)
- Construct: using human liver microsomes (pool from various individuals); from tissue; host or cells: human liver microsomes (pool from various individuals)
- test-details: Assay to assess irreversible CYP3A4 inhibition (mechanism-based inhibition) in human liver microsomes
- Type: in vitro ADME
- run-parameters: CYP3A4 activity as 6β-hydroxytestosterone formation, 2-20 μM
Just the number, please.

compound	measured-on	Partition ratio r
CS(=O)(=O)Cc1cccc2c(C(c3ccc(F)cc3)c3ccc(Cl)cc3F)c[nH]c12 (single isomer, unassigned) [Example 118-1]	CYP3A4 (Homo sapiens)	250

From here, focus on the item given below.
Give recorded Partition ratio r with CYP3A4 (Homo sapiens) for the following compound: CS(=O)(=O)Cc1cccc2c(C(CCC#N)c3ccc(Cl)cc3F)c[nH]c12 (single isomer, unassigned) [Example 59-1]
220
